Cited source: paper PMC8615111

- Test system: HaCaT cells
- EXPERIMENT_SUMMARY: Cytotoxicity determination, MTT method
- Type: cell-based
- ASSAY_CONDITIONS: Homo sapiens; HaCaT cells, MTT, 24 h; read-out: IC50 (µg/mL)
For each record, check the reported IC50: if it is below 40 µg/mL write criterion met, else write criterion not met.

> print(dat)
                                   compound       answer.label
1  C/C(=N\Nc1nc(-c2ccc(O)c(O)c2)cs1)c1ccc(O)cc1O.Cl [Compound 8a]  criterion not met
2  Cc1csc(N/N=C/c2ccc(O)cc2O)n1.Cl [Compound 5b]  criterion not met
3  Br.C/C(=N\Nc1nc(-c2ccccc2)cs1)c1ccc(O)cc1O [Compound 6a]  criterion not met
4  Br.C/C(=N\Nc1nc(-c2ccc(O)c(C(N)=O)c2)cs1)c1ccc(O)cc1O [Compound 7a]      criterion met
5  C/C(=N\Nc1nc(C)cs1)c1ccc(O)cc1O [Compound 5a]      criterion met
6  Br.NC(=O)c1cc(-c2csc(N/N=C/c3ccc(O)cc3O)n2)ccc1O [Compound 7b]  criterion not met
7  Br.Oc1ccc(/C=N/Nc2nc(-c3ccccc3)cs2)c(O)c1 [Compound 6b]      criterion met
8  Cl.Oc1ccc(/C=N/Nc2nc(-c3ccc(O)c(O)c3)cs2)c(O)c1 [Compound 8b]      criterion met

====

- EXPERIMENT_SUMMARY: Ferric ions (Fe^3+) reducing antioxidant power by cyclic voltammetry
- ASSAY_CONDITIONS: compound alone 0.5 mM in 0.1 M HClO4; 5th Iox column
Assign 1 to entries whose Iox (μA) meets or exceeds 3 μA; assign -1 to the rest.

> print(dat)
                                item.smiles  answer.label
1  Br.NC(=O)c1cc(-c2csc(N/N=C/c3ccc(O)cc3O)n2)ccc1O            -1
2  Br.Oc1ccc(/C=N/Nc2nc(-c3ccccc3)cs2)c(O)c1             1
3  C/C(=N\Nc1nc(-c2ccc(O)c(O)c2)cs1)c1ccc(O)cc1O.Cl             1
4  Cl.Oc1ccc(/C=N/Nc2nc(-c3ccc(O)c(O)c3)cs2)c(O)c1            -1
5           C/C(=N\Nc1nc(C)cs1)c1ccc(O)cc1O             1

====

- EXPERIMENT_SUMMARY: Ferric ions (Fe^3+) reducing antioxidant power by cyclic voltammetry
- ASSAY_CONDITIONS: compound alone 0.5 mM in 0.1 M HClO4; 5th Eox
Lab note: anything with Eox (V) at or over 1 V counts as Fulfilled; the rest go in Not fulfilled.

> print(dat)
                                   compound   answer.label
1  Br.Oc1ccc(/C=N/Nc2nc(-c3ccccc3)cs2)c(O)c1 [Compound 6b]  Not fulfilled
2  Br.NC(=O)c1cc(-c2csc(N/N=C/c3ccc(O)cc3O)n2)ccc1O [Compound 7b]      Fulfilled

====

- EXPERIMENT_SUMMARY: Cu^2+ chelation assay
- Type: biochemical
- ASSAY_CONDITIONS: 13.44 µg/mL
READOUT_KIND: Chelation Capacity (%), cupric ions

> print(dat)
                                item.smiles  test.value
1  Br.C/C(=N\Nc1nc(-c2ccccc2)cs1)c1ccc(O)cc1O       15.90
2  Cl.Oc1ccc(/C=N/Nc2nc(-c3ccc(O)c(O)c3)cs2)c(O)c1       20.30
3  Br.Oc1ccc(/C=N/Nc2nc(-c3ccccc3)cs2)c(O)c1       14.34
4           C/C(=N\Nc1nc(C)cs1)c1ccc(O)cc1O       28.62
5  Br.NC(=O)c1cc(-c2csc(N/N=C/c3ccc(O)cc3O)n2)ccc1O       19.40
6  Br.C/C(=N\Nc1nc(-c2ccc(O)c(C(N)=O)c2)cs1)c1ccc(O)cc1O       34.35
7  C/C(=N\Nc1nc(-c2ccc(O)c(O)c2)cs1)c1ccc(O)cc1O.Cl       34.16
8           Cc1csc(N/N=C/c2ccc(O)cc2O)n1.Cl       28.99
